// provenance: ChEMBL document CHEMBL1909046

- TARGET_UNDER_TEST: Histamine H2 receptor (Homo sapiens, UniProt P25021); also: in other assays of this panel Not Active means under 50% inhibition at 10 µM
- Sequence (P25021 whole entry): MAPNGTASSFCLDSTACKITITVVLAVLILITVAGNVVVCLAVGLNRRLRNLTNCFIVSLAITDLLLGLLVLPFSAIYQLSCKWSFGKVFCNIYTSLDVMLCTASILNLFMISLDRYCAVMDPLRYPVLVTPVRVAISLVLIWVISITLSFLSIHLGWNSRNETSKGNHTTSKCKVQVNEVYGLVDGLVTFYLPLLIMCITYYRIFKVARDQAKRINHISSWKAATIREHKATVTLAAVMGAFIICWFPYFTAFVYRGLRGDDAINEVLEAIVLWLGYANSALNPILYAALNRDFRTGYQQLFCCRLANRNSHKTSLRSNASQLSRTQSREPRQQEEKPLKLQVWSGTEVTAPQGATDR
- Format: cell membranes, CHO-K1, Membrane
- CONDITION_NOTES: read-out: IC50
EXPERIMENTAL_READOUT: pIC50
Scale: negative log10 of molar concentration, which is what pIC50 denotes.

Previously resolved entries follow.
> print(dat)
                                   molecule  meas.value
1  CCCCCCCCNC(C)C(O)c1ccc(SC(C)C)cc1 (configuration not stated) [SULOCTIDIL]        6.97
2  Clc1ccc(COC(Cn2ccnc2)c2ccc(Cl)cc2Cl)c(Cl)c1 (configuration not stated) [MICONAZOLE]        5.17
3  CN1CCC(=C2c3ccccc3CC(=O)c3sccc32)CC1 [KETOTIFEN]        5.38

Summary for this molecule, CN1[C@@H]2CC[C@H]1C[C@@H](OC(c1ccccc1)c1ccccc1)C2 [BENZTROPINE] : pIC50 is 5.92

Summary for this molecule, CCN(CC)CCCC(C)Nc1c2ccc(Cl)cc2nc2ccc(OC)cc12 (configuration not stated) [QUINACRINE] : pIC50 is 5.45

Summary for this molecule, CN1CCN(C2=Nc3cc(Cl)ccc3Nc3ccccc32)CC1 [CLOZAPINE] : pIC50 is 5.44

Summary for this molecule, CN(C)C(=O)C(CCN1CCC(O)(c2ccc(Cl)cc2)CC1)(c1ccccc1)c1ccccc1 [LOPERAMIDE] : pIC50 is 5.51

###

- EXPERIMENT_DESCRIPTION: DRUGMATRIX: Serotonin (5-Hydroxytryptamine) 5-HT3 radioligand binding (ligand: [3H] GR-65630)
- Assay type: cell membranes, Membrane
- CONDITION_NOTES: hek293; Not Active = under 50% inhibition at 10 µM
EXPERIMENTAL_READOUT: Ki

> print(dat)
                                   compound  meas.value
1  COC(=O)Nc1nc2cc(C(=O)c3ccc(F)cc3)ccc2[nH]1  Not Active
2  C[C@H]1COc2c(N3CCN(C)CC3)c(F)cc3c(=O)c(C(=O)O)cn1c23.C[C@H]1COc2c(N3CCN(C)CC3)c(F)cc3c(=O)c(C(=O)O)cn1c23.O  Not Active
3  CC(=O)OCC(=O)[C@@]1(O)CC[C@H]2[C@@H]3CCC4=CC(=O)CC[C@]4(C)[C@@]3(F)[C@@H](O)C[C@@]21C [FLUDROCORTISONE ACETATE]  Not Active

###

- EXPERIMENT_DESCRIPTION: DRUGMATRIX: Calcium Channel Type L, Benzothiazepine radioligand binding (ligand: [3H] Diltiazem)
- Type: cell membranes, Rattus norvegicus, Wistar, Brain, Membrane
- CONDITION_NOTES: Not Active = under 50% inhibition at 10 µM; read-out: Ki
Label met when Ki is strictly below 2000 nM; at or above that, label not met.

> print(dat)
                                   compound  assigned.label
1  CCCCCCCCNC(C)C(O)c1ccc(SC(C)C)cc1 (stereo not drawn)             met
2  COC(=O)[C@H]1[C@H]2C[C@@H]3c4[nH]c5cc(OC)ccc5c4CCN3C[C@H]2C[C@@H](OC(=O)c2cc(OC)c(OC)c(OC)c2)[C@@H]1OC         not met

Q) Strictly below 2000 nM in Ki? Cc1c(O)cccc1C(=O)N[C@@H](CSc1ccccc1)[C@H](O)CN1C[C@H]2CCCC[C@H]2C[C@H]1C(=O)NC(C)(C)C
A) not met

Q) Strictly below 2000 nM in Ki? CN1CCN(C(c2ccccc2)c2ccccc2)CC1
A) not met

Q) Strictly below 2000 nM in Ki? CN(C)CCC=C1c2ccccc2CCc2ccccc21
A) met

Q) Strictly below 2000 nM in Ki? CCN(CC)CCCC(C)Nc1c2ccc(Cl)cc2nc2ccc(OC)cc12 (stereo not drawn)
A) met

###

- TARGET_UNDER_TEST: Alpha-1B adrenergic receptor (Rattus norvegicus, UniProt P15823)
- Sequence (P15823 whole entry): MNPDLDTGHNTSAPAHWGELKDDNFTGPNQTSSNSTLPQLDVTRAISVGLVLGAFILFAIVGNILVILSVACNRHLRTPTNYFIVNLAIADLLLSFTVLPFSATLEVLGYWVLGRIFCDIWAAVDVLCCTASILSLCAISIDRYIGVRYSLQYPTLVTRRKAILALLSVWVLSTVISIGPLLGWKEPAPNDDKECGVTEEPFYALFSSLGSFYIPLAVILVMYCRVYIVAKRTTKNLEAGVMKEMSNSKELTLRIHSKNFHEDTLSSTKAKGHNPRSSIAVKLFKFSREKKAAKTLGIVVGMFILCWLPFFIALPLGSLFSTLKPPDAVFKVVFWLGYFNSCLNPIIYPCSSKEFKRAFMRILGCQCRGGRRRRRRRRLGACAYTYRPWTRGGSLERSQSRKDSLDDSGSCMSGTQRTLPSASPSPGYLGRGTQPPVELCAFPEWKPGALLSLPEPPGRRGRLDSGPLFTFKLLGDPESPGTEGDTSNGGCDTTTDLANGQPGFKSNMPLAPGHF
- EXPERIMENT_DESCRIPTION: DRUGMATRIX: Alpha-1B adrenergic receptor radioligand binding (ligand: prazosin)
- Format: cell membranes, Wistar, Liver, Membrane
- CONDITION_NOTES: Not Active = under 50% inhibition at 10 µM
EXPERIMENTAL_READOUT: IC50

Previously resolved entries follow.
MOLECULE	EXPERIMENTAL_READOUT	MEAS_VALUE
Cn1c(=O)c2c(ncn2C)n(C)c1=O	IC50	Not Active
CCCNC(C)C(=O)Nc1ccccc1C (stereo not given)	IC50	Not Active
O=C(O)CCCc1cccs1	IC50	Not Active
C[C@@H]1O[C@@H](O[C@H]2C[C@@H](O)[C@]3(CO)[C@H]4[C@H](O)C[C@]5(C)[C@@H](C6=CC(=O)OC6)CC[C@]5(O)[C@@H]4CC[C@]3(O)C2)[C@H](O)[C@H](O)[C@H]1O	IC50	Not Active

Okay, next one:
Summary for this molecule, COc1ccc2c(c1OC)C(=O)O[C@@H]2[C@H]1c2c(cc3c(c2OC)OCO3)CCN1C : IC50 is Not Active

###

- TARGET_UNDER_TEST: Aldo-keto reductase family 1 member B1 (Rattus norvegicus, UniProt P07943); also: in other assays of this panel Not Active means under 50% inhibition at 10 µM;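 also: inhibition of aldose reductase enzyme activity, measured with DL-glyceraldehyde as the substrate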
- EXPERIMENT_DESCRIPTION: biochemical
- Assay type: tissue-based, Lens of camera-type eye
EXPERIMENTAL_READOUT: IC50

Previously resolved entries follow.
> print(dat)
                                   compound                         target.under.test  meas.value
1     Cn1c(=O)c2c(ncn2C)n(C)c1=O [CAFFEINE]  Aldo-keto reductase family 1 member B1 (Rattus norvegicus, UniProt P07943)  Not Active
2  CNC1=Nc2ccc(Cl)cc2C(c2ccccc2)=[N+]([O-])C1 [CHLORDIAZEPOXIDE]  Aldo-keto reductase family 1 member B1 (Rattus norvegicus, UniProt P07943)  Not Active
3  COC(=O)[C@H]1[C@H]2C[C@@H]3c4[nH]c5cc(OC)ccc5c4CCN3C[C@H]2C[C@@H](OC(=O)c2cc(OC)c(OC)c(OC)c2)[C@@H]1OC [RESERPINE]  Aldo-keto reductase family 1 member B1 (Rattus norvegicus, UniProt P07943)  Not Active
4  CO/N=C(\C(=O)N[C@@H]1C(=O)N2C(C(=O)O)=C(COC(C)=O)CS[C@H]12)c1csc(N)n1 [CEFOTAXIME]  Aldo-keto reductase family 1 member B1 (Rattus norvegicus, UniProt P07943)  Not Active
5  CC(C)NC[C@@H](O)COc1cccc2ccccc12 [DEXPROPRANOLOL]  Aldo-keto reductase family 1 member B1 (Rattus norvegicus, UniProt P07943)  Not Active

With Aldo-keto reductase family 1 member B1 (Rattus norvegicus, UniProt P07943) as the test system, Nc1cc(-c2ccncc2)c[nH]c1=O [INAMRINONE] showed IC50 of Not Active

With Aldo-keto reductase family 1 member B1 (Rattus norvegicus, UniProt P07943) as the test system, CCOC(=O)c1ncn2c1CN(C)C(=O)c1cc(F)ccc1-2 [FLUMAZENIL] showed IC50 of Not Active

With Aldo-keto reductase family 1 member B1 (Rattus norvegicus, UniProt P07943) as the test system, CC(=O)OCC(COC(C)=O)OC(C)=O [TRIACETIN] showed IC50 of Not Active

With Aldo-keto reductase family 1 member B1 (Rattus norvegicus, UniProt P07943) as the test system, CCCNC(=O)NS(=O)(=O)c1ccc(Cl)cc1 [CHLORPROPAMIDE] showed IC50 of Not Active

With Aldo-keto reductase family 1 member B1 (Rattus norvegicus, UniProt P07943) as the test system, CC(=O)Oc1ccccc1C(=O)O [ASPIRIN] showed IC50 of Not Active

With Aldo-keto reductase family 1 member B1 (Rattus norvegicus, UniProt P07943) as the test system, CN1CCC(=C2c3ccccc3CC(=O)c3sccc32)CC1 [KETOTIFEN] showed IC50 of Not Active

With Aldo-keto reductase family 1 member B1 (Rattus norvegicus, UniProt P07943) as the test system, COC(=O)Nc1nc2cc(C(=O)c3ccc(F)cc3)ccc2[nH]1 [FLUBENDAZOLE] showed IC50 of Not Active

With Aldo-keto reductase family 1 member B1 (Rattus norvegicus, UniProt P07943) as the test system, C#C[C@]1(O)CC[C@H]2[C@@H]3CCC4=CC(=O)CC[C@]4(C)[C@H]3CC[C@@]21C [ETHISTERONE] showed IC50 of Not Active

With Aldo-keto reductase family 1 member B1 (Rattus norvegicus, UniProt P07943) as the test system, CN(C)C(=O)Oc1cccc([N+](C)(C)C)c1.[Br-] [NEOSTIGMINE BROMIDE] showed IC50 of Not Active
